melting point values, listed per item

Entry CCCN1C(=O)CCc2cc(CNS(=O)(=O)c3cn(C)cn3)ccc21 — recorded melting point = 168 to 171 °C

For this compound ( CCCN1C(=O)CCc2cc(CNS(=O)(=O)c3ccc(Cl)s3)ccc21 ), measured melting point is 144 to 147 °C

So for CCCN1C(=O)CCc2cc(CNS(=O)(=O)/C=C/c3ccc(C)cc3)ccc21 , the logged melting point turned out to be 172 to 174 °C

Lookup result for CCCN1C(=O)CCc2cc(CNS(=O)(=O)CCC(F)(F)F)ccc21 ; measured melting point: 132 to 135 °C

###

A collection of compounds and their measured change in vivo at 500 µM
# System: corn plants (variety NK OCTET)
# protocol text: Reduced plant water use in corn (foliar spray, repeated weighing of pots)
# Assay type: in vivo
# experimental context: Zea mays, 60 h, corn plants sprayed at 500 μM, cumulative total water use 0-2.5 DAA (sum of the time points) vs negative control, average of 6 pots, read-out: % WU Total 0 to 2.5 DAA
Quick note: give the figure in %, leave out the unit.

>>> recorded_measurement("CCCN1C(=O)CCc2cc(C3(NS(=O)(=O)c4ccc(F)cc4F)CC3)ccc21 [Compound 15.006]")
-1.2
>>> recorded_measurement("C/C=C/CS(=O)(=O)NCc1ccc2c(c1)CCC(=O)N2CCC [Compound 3.066]")
-6.4
>>> recorded_measurement("CCCN1C(=O)CCc2cc(CNS(=O)(=O)c3ccc(Cl)cc3)ccc21 [Compound 3.004]")
-12.8

Measured change in vivo at 500 µM, CCCN1C(=O)CCc2cc(CNS(=O)(=O)c3ccc(Br)cc3)ccc21 [Compound 3.002] : -10.9

###

Quick list: change in vivo at 500 µM per entry.
# Test system: soybean plants (variety S20-G7)
# protocol text: Reduced plant water use in soybean (foliar spray, repeated weighing of pots)
# Assay type: in vivo
# experimental context: Glycine max, foliar, 48 h, Table B1, sprayed at 500 μM, vs negative control, 2 DAA p.m. (14:00-19:50), read-out: % WU 2 DAA PM
The answer consists of two parts: a number and, after it, its unit.

Worked cases, answers included:
>>> recorded_measurement("CC1CC(=O)N(CC(F)(F)F)c2ccc(CNS(=O)(=O)c3ccccc3)cc21 (centres unmarked)")
"-37.3%"
>>> recorded_measurement("O=C1CCc2cc(CNS(=O)(=O)c3ccc(F)cc3F)ccc2N1CC(F)(F)F")
"-16.5%"
>>> recorded_measurement("COCCN1C(=O)CCc2cc(CNS(=O)(=O)c3ccc(F)cc3F)ccc21")
"-10.3%"

Entry O=C1CCc2cc(CNS(=O)(=O)c3ccccc3)ccc2N1CC(F)(F)F under soybean plants (variety S20-G7) had change in vivo at 500 µM of -26.9%

// assay soybean plants (variety S20-G7), entry C=CCN1C(=O)CCc2cc(CNS(=O)(=O)c3ccc(F)cc3F)ccc21 , change in vivo at 500 µM value = -9.9%

###

# Tested on: corn plants (variety NK OCTET)
# protocol text: Reduced plant water use in corn (foliar spray, repeated weighing of pots)
# Type: in vivo
# experimental context: Zea mays, 60 h, corn plants sprayed at 500 μM, cumulative total water use 0-2.5 DAA (sum of the time points) vs negative control, average of 6 pots, read-out: % WU Total 0 to 2.5 DAA
# Description: Compounds were tested for their effect on reducing plant water use as follows. The compounds were applied by foliar spray to 12 day old corn plants (variety NK OCTET) grown in controlled environment plant growth chambers. […] Plant water use during the day was assessed by repeated weighing of the pots in which the plants were grown before and after application of the compounds at the indicated times (expressed in days after application (DAA)). […]
Measured change in vivo at 500 µM, listed per entry.
Please give the number followed by its unit.

>>> recorded_measurement("C=CCS(=O)(=O)NCc1ccc2c(c1)CCC(=O)N2CCC")
"-4.9%"
>>> recorded_measurement("CCN1C(=O)CCc2cc(CNS(=O)(=O)/C=C/c3cccc(Cl)c3)ccc21")
"-3.2%"

What the record says about CCCN1C(=O)CCc2cc(CNS(=O)(=O)/C=C/c3cccc(Cl)c3)ccc21 : change in vivo at 500 µM is -5%

For this compound ( CCN1C(=O)CCc2cc(CNS(=O)(=O)c3ccc(F)cc3F)ccc21 ), measured change in vivo at 500 µM is -5.4%
